Each entry below carries its recorded CC50 at 144 h.
EXPERIMENTAL_PROTOCOL: PHH natural infection assay, cytotoxicity (Cell Counting Kit-8)
Format: cell-based
CONDITION_DETAILS: human, HBV-infected primary human hepatocytes, CCK8, end of treatment

Solved entries:
{"COMPOUND": "CC(C)S(=N)(=O)Cc1ccc(C(=O)NC2CC3(C2)CC(c2nc4cc(Cl)ccc4o2)C3)o1 (stereo not drawn) [Example 59]", "CC50 at 144 h": "> 100 µM"}
{"COMPOUND": "O=C(NC1CC2(C1)CC(c1nc3cc(Cl)ccc3o1)C2)c1ccc(S(=O)(=O)NC(=O)C2CS(=O)(=O)C2)o1 (stereo not drawn) [Example 83]", "CC50 at 144 h": "> 10 µM"}

Continue with the compound presented below.
// sample O=C(NC1CC2(C1)CC(c1nc3cc(Cl)ccc3o1)C2)c1ccc(C(F)(F)F)o1 (stereo not drawn) [Example 1] , its CC50 at 144 h was 96.8 µM

----------
EXPERIMENTAL_PROTOCOL: PHH natural infection assay, cytotoxicity (Cell Counting Kit-8)
Assay type: cell-based
CONDITION_DETAILS: human, HBV-infected primary human hepatocytes, CCK8, end of treatment
Each entry below carries its recorded CC50 at 144 h.

{"MOLECULE": "N=S(=O)(c1ccc(C(=O)NC2CC3(C2)CC(c2nc4cc(Cl)cnc4o2)C3)o1)C1CC1 (stereo not drawn) [Example 64]", "TEST_READOUT": "CC50 at 144 h", "RESULT_VALUE": "> 100 µM"}

// sample CS(=O)(=O)Cc1ccc(C(=O)NC2CC3(C2)CC(c2nc4cc(Cl)ccc4o2)C3)o1 (stereo not drawn) [Example 30] , its CC50 at 144 h was > 100 µM

// sample O=C(NC1CC2(C1)CC(c1nc3cnc(Cl)cc3o1)C2)c1ccc(S(=O)(=O)C2CC2)o1 (stereo not drawn) [Example 51] , its CC50 at 144 h was > 100 µM

----------
Each entry below carries its recorded CC50 at 144 h.
EXPERIMENTAL_PROTOCOL: PHH natural infection assay, cytotoxicity (Cell Counting Kit-8)
Type: cell-based
CONDITION_DETAILS: human, HBV-infected primary human hepatocytes, CCK8, end of treatment

Solved entries:
{"COMPOUND": "O=C(N[C@H]1CC2(C1)C[C@H](c1nc3cc(Cl)ccc3o1)C2)c1ccc(S(=O)(=O)NC(=O)C2CCC2)o1 (single isomer, unassigned) [Example 72]", "RESULT_VALUE": "> 100 µM"}
{"COMPOUND": "CC(C)C(=O)NS(=O)(=O)c1ccc(C(=O)N[C@H]2CC3(C2)C[C@H](c2nc4cc(Cl)ccc4o2)C3)o1 (single isomer, unassigned) [Example 70]", "RESULT_VALUE": "> 100 µM"}
{"COMPOUND": "CNS(=O)(=O)c1ccc(C(=O)NC2CC3(C2)CC(c2nc4cc(Cl)ccc4o2)C3)o1 (stereo not drawn) [Example 88]", "RESULT_VALUE": "> 10 µM"}
{"COMPOUND": "N=S(=O)(c1ccc(C(=O)NC2CC3(C2)CC(c2nc4cc(Cl)ccc4o2)C3)o1)C1CC1 (stereo not drawn) [Example 53]", "RESULT_VALUE": "> 10 µM"}
{"COMPOUND": "O=C(NC1CC2(C1)CC(c1nc3cc(Cl)ccc3o1)C2)c1ccc([S+]([O-])CC2CC2)o1 (single isomer, unassigned) [Example 19-a]", "RESULT_VALUE": "> 10 µM"}
{"COMPOUND": "[H][C@]1(NC(=O)c2ccc([S@](C)(=N)=O)o2)C[C@]2(C1)C[C@]([H])(c1nc3cc(Cl)ccc3o1)C2 (stereo partly drawn) [Example 52-d]", "RESULT_VALUE": "> 100 µM"}
{"COMPOUND": "O=C(NC1CC2(C1)CC(c1nc3cc(Cl)ccc3o1)C2)c1ccc(S2(=O)=NCCCC2)o1 (stereo not drawn) [Example 62]", "RESULT_VALUE": "> 100 µM"}
{"COMPOUND": "O=C(NC1CC2(C1)CC(c1nc3cc(Cl)ccc3o1)C2)c1ccc(SC(F)(F)F)o1 (stereo not drawn) [Example 41]", "RESULT_VALUE": "> 100 µM"}
{"COMPOUND": "NS(=O)(=O)c1ccc(C(=O)NC2CC3(C2)CC(c2nc4cc(Cl)ccc4o2)C3)o1 (single isomer, unassigned) [Example 29-a]", "RESULT_VALUE": "> 100 µM"}
{"COMPOUND": "O=C(NC1CC2(C1)CC(c1nc3cc(Cl)ccc3o1)C2)c1ccc(S(=O)(=O)CC2CN(C(=O)OCc3ccccc3)C2)o1 (stereo not drawn) [Example 26]", "RESULT_VALUE": "> 100 µM"}

// sample O=C(NC1CC2(C1)CC(c1nc3cc(Cl)ccc3o1)C2)c1ccc(S(=O)(=O)CC2CCC2)o1 (stereo not drawn) [Example 23] , its CC50 at 144 h was > 100 µM

----------
Tested on: HBeAg
EXPERIMENTAL_PROTOCOL: PHH HBV natural infection assay, HBeAg (alphalisa)
Assay type: cell-based
CONDITION_DETAILS: read-out: HbeAg IC50; HBV-infected primary human hepatocytes, supernatant, compound medium refreshed two times with 72-hour interval
pIC50: −log10 of the molar value.
Label TRUE when pIC50 is at or above 6; otherwise label FALSE.

As a guide, the following entries are already answered.
{"MOLECULE": "N=S(=O)(CC1CC1)c1ccc(C(=O)NC2CC3(C2)CC(c2nc4cc(Cl)ccc4o2)C3)o1 (single isomer, unassigned) [Example 54-b]", "GROUP_LABEL": "TRUE"}
{"MOLECULE": "O=C(NC1CC2(C1)CC(c1nc3cc(Cl)ccc3o1)C2)c1ccc([S+]([O-])CC2CC2)o1 (single isomer, unassigned) [Example 19-b]", "GROUP_LABEL": "TRUE"}
{"MOLECULE": "N=S(=O)(CC1CC1)c1ccc(C(=O)NC2CC3(C2)CC(c2nc4cc(Cl)ccc4o2)C3)o1 (single isomer, unassigned) [Example 54-c]", "GROUP_LABEL": "FALSE"}

Answer whether pIC50 of O=C(NC1CC2(C1)CC(c1nc3cc(Cl)cnc3o1)C2)c1ccc(S(=O)(=O)C2CC2)o1 (single isomer, unassigned) [Example 49-b] is greater than or equal to 6.
TRUE

----------
Each entry below carries its recorded CC50 at 144 h.
EXPERIMENTAL_PROTOCOL: PHH natural infection assay, cytotoxicity (Cell Counting Kit-8)
Type: cell-based
CONDITION_DETAILS: human, HBV-infected primary human hepatocytes, CCK8, end of treatment
Method: Detailed procedures regarding primary human hepatocyte (PHH) HBV natural infection assay are described as below. […] HBsAg and HBeAg were detected using alphalisa method using their specific antibodies. For HBV DNA detection, HBV DNA Quantitative Fluorescence Diagnostic Kit (Sansure Biotech Inc.) was used following the manufacture's protocol. Cytotoxicity was determined using Cell Counting Kit-8 (CCK8, Dojindo Molecular Technologies, Inc.).

Solved entries:
{"COMPOUND": "COCCOCCOCC(=O)NS(=O)(=O)c1ccc(C(=O)N[C@H]2CC3(C2)C[C@H](c2nc4cc(Cl)ccc4o2)C3)o1 (single isomer, unassigned)", "CC50 at 144 h": "> 10 µM"}
{"COMPOUND": "O=C(NC1CC2(C1)CC(c1nc3cc(Cl)ccc3o1)C2)c1ccc(S(=O)(=O)NC(=O)C2COC2)o1 (stereo not drawn)", "CC50 at 144 h": "> 10 µM"}

Continue with the compound presented below.
// sample CS(=N)(=O)c1ccc(C(=O)NC2CC3(C2)CC(c2nc4cc(Cl)cnc4o2)C3)o1 (stereo not drawn) , its CC50 at 144 h was > 100 µM

----------
EXPERIMENTAL_PROTOCOL: PHH natural infection assay, cytotoxicity (Cell Counting Kit-8)
Type: cell-based
CONDITION_DETAILS: human, HBV-infected primary human hepatocytes, CCK8, end of treatment
Each entry below carries its recorded CC50 at 144 h.
Output spec: scalar in µM, unitless text.

// sample O=C(NC1CC2(C1)CC(c1nc3cc(Cl)ccc3o1)C2)c1ccc(Br)o1 (stereo not shown) , its CC50 at 144 h was 96.2

// sample CC(C)S(=O)(=O)Cc1ccc(C(=O)NC2CC3(C2)CC(c2nc4cc(Cl)ccc4o2)C3)o1 (stereo not shown) , its CC50 at 144 h was 95.8

// sample CC(C)c1ccc(C(=O)NC2CC3(C2)CC(c2nc4cc(Cl)ccc4o2)C3)o1 (stereo not shown) , its CC50 at 144 h was 85.9

----------
EXPERIMENTAL_PROTOCOL: PHH natural infection assay, cytotoxicity (Cell Counting Kit-8)
Type: cell-based
CONDITION_DETAILS: human, HBV-infected primary human hepatocytes, CCK8, end of treatment
TEST_READOUT: CC50 at 144 h

// sample O=C(NC1CC2(C1)CC(c1nc3cc(Cl)ccc3o1)C2)c1ccc(S(=O)(=O)CC2CC(F)(F)C2)o1 (stereo not shown) , its CC50 at 144 h was > 100 µM

// sample N=S(=O)(c1ccc(C(=O)NC2CC3(C2)CC(c2nc4cc(Cl)cnc4o2)C3)o1)C1CC1 (single isomer, unassigned) [Example 64-a] , its CC50 at 144 h was > 10 µM

// sample NS(=O)(=O)CCc1ccc(C(=O)NC2CC3(C2)CC(c2nc4cc(Cl)ccc4o2)C3)o1 (stereo not shown) , its CC50 at 144 h was > 100 µM

// sample CCS(=O)(=O)c1oc(C(=O)NC2CC3(C2)CC(c2nc4cc(Cl)ccc4o2)C3)cc1Br (stereo not shown) , its CC50 at 144 h was > 100 µM
